ASSAYED_SYSTEM: Androgen Receptor (AR) (Homo sapiens, UniProt P10275, T878A)
Construct: cell based immuno-fluorescence assay using the LNCaP prostate epithelial cell line; endogenous in cells; host or cells: LNCaP clone FGC (ATCC CRL-1740)
Sequence (P10275 whole entry T878A): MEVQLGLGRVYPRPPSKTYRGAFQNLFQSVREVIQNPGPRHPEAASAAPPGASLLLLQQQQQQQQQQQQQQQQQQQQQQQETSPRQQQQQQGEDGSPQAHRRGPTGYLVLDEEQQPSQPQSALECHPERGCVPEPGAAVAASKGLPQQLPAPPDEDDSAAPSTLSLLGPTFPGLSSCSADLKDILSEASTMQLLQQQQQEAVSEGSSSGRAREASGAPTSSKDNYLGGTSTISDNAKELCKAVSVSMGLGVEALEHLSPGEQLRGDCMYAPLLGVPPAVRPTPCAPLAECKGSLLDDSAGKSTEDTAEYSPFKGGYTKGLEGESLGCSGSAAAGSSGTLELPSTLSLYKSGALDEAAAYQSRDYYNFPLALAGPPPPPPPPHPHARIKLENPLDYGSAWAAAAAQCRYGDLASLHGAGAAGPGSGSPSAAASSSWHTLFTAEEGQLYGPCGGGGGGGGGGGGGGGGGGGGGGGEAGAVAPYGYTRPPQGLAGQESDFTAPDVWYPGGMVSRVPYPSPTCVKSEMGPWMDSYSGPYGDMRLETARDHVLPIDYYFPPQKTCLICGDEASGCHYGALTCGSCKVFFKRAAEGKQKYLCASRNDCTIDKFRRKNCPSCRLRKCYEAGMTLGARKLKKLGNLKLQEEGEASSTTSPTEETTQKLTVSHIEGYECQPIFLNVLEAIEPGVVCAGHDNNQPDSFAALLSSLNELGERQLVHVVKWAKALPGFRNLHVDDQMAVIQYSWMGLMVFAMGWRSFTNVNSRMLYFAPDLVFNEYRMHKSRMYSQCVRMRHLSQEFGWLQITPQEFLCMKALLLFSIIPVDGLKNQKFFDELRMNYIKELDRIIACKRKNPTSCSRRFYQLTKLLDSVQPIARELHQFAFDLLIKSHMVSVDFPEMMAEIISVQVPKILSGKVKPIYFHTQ
ASSAY_NOTES: LNCaP Androgen Receptor Down-regulation Cell Assay (immunofluorescence end point)
Assay type: cell-based
TEST_CONDITIONS: LNCaP prostate carcinoma cells, compound incubation 20-22 hours, 50% reduction of the AR signal; read-out: Androgen Receptor Down-regulation Assay (a) IC50/μM
MEASURE: DC50 (µM)
Quick note: give the figure in µM, leave out the unit.

Qu. Recorded DC50 for O=C(c1ccccc1)C1CCN(c2ccc3nnc(C(F)(F)F)n3n2)CC1 [Example 533] with Androgen Receptor (AR) (Homo sapiens, UniProt P10275, T878A), please?
Ans. 2.3

Qu. Recorded DC50 for FC(F)c1ccc(CN2CCN(c3ccc4nnc(C(F)F)n4n3)CC2)cc1 [Example 826] with Androgen Receptor (AR) (Homo sapiens, UniProt P10275, T878A), please?
Ans. 1.4

Qu. Recorded DC50 for FC(F)(F)c1ccccc1OC1CCN(c2ccc3nnc(C(F)(F)F)n3n2)CC1 [Example 653] with Androgen Receptor (AR) (Homo sapiens, UniProt P10275, T878A), please?
Ans. 1

Qu. Recorded DC50 for FC(F)(F)c1nnc2ccc(N3CCC(c4ccc(OCCn5cccn5)cc4)CC3)nn12 [Example 849] with Androgen Receptor (AR) (Homo sapiens, UniProt P10275, T878A), please?
Ans. 0.68

Qu. Recorded DC50 for C[C@@H]1CN(Cc2ccc(F)c(F)c2)CCN1c1ccc2nnc(C(F)(F)F)n2n1 [Example 601] with Androgen Receptor (AR) (Homo sapiens, UniProt P10275, T878A), please?
Ans. 2.2

Qu. Recorded DC50 for O=C(NCCN1CCOCC1)c1ccc2[nH]cc(C3CCN(c4ccc5nnc(C(F)(F)F)n5n4)CC3)c2c1 [Example 503] with Androgen Receptor (AR) (Homo sapiens, UniProt P10275, T878A), please?
Ans. 4.3
